# Protocol Text: Inhibition of guinea pig protein-glutamine gamma-glutamyltransferase 2 assessed as fluorescent intensity of monodansyl cadaverine
# Design: species or system Cavia porcellus
pIC50: −log10 of the molar value.
Value Kind: pIC50

Consider the reported pIC50 for these compounds:
COC(=O)C(CSSCC(NCCC(=O)c1nccs1)C(=O)OC)NCCC(=O)c1nccs1 (stereo not drawn) = 5.01
COC(=O)C(CSSCC(NCCC(=O)c1cccc(Br)n1)C(=O)OC)NCCC(=O)c1cccc(Br)n1 (stereo not drawn) = 5.96
COC(=O)C(CSSCC(NCCC(=O)c1ccc(Br)cc1)C(=O)OC)NCCC(=O)c1ccc(Br)cc1 (stereo not drawn) = 4.96
O=C(CCNCCSSCCNCCC(=O)c1ccc(Cl)s1)c1ccc(Cl)s1 = 6.92

A. COC(=O)C(CSSCC(NCCC(=O)c1cccs1)C(=O)OC)NCCC(=O)c1cccs1 (stereo not drawn)
B. O=C(CCNCCSSCCNCCC(=O)c1ccc(I)cc1)c1ccc(I)cc1
Could you tell me which of these two has the smaller pIC50 figure? First: A Second: B // respond with label for picked entry
B

P. COC(=O)C(CSSCC(NCCC(=O)c1ccc(Br)s1)C(=O)OC)NCCC(=O)c1ccc(Br)s1 (stereo not drawn)
Q. COC(=O)C(CSSCC(NCCC(=O)c1sccc1Br)C(=O)OC)NCCC(=O)c1sccc1Br (stereo not drawn)
// compare: P vs Q , metric pIC50, want the smaller # respond with the chosen item's label
Q
(Q: 5.24, P: 6.74)
